Tested on: INS1
Experiment: Protection against tunicamycin induced endoplasmic reticulum stress in rat INS-1 cells assessed as increase in cell viability after 3 days by CellTiter-Glo assay
Assay type: functional, cell-based
Details: INS1, 72 h
pEC50: −log10 of the molar value.
# binarize pEC50: threshold 6 inclusive, high side met, low side not met

Take a look at these entries with their results.
{"molecule": "OCC1CCCCN1c1nc(NCCc2ccccc2)c2ccccc2n1 (racemic)", "measured target": "INS1", "label class": "met"}
{"molecule": "OCC1CCCCN1c1nc(NCCc2cccc(F)c2)c2ccccc2n1 (racemic)", "measured target": "INS1", "label class": "not met"}
{"molecule": "OC[C@@H]1CCCN1c1nc(NCCc2ccccc2)c2ccccc2n1", "measured target": "INS1", "label class": "met"}

# input Would you say OCC1CCCCN1c1nc(NCc2ccccc2)c2ccccc2n1 (stereo unspecified) shows pEC50 at minimum 6?
# output met

# input Would you say OCC1CCCCN1c1nc(NCCc2ccc(Br)cc2)c2ccccc2n1 (racemic) shows pEC50 at minimum 6?
# output met

====

pEC50 values for the molecules below.
System: INS1
Assay: Protection against tunicamycin induced endoplasmic reticulum stress in rat INS-1 cells assessed as increase in cell viability after 3 days by CellTiter-Glo assay
Assay type: functional, cell-based
Conditions: INS1, 72 h
Units for pEC50: none; it is -log10 of a concentration expressed in mol/L.

Please review the following examples before continuing.
{"molecule": "OC[C@@H]1CCCN1c1nc(NCCc2ccc(Cl)cc2)c2ccccc2n1", "pEC50": 6.29}
{"molecule": "OC[C@@H]1CCCN1c1nc(NCCc2ccc(Br)cc2)c2ccccc2n1", "pEC50": 6.19}
{"molecule": "OCC1CCCCN1c1nc(NCCc2ccc(F)cc2)c2ccccc2n1 (racemic)", "pEC50": 6.51}
{"molecule": "COc1ccc(CCNc2nc(N3CCCCC3CO)nc3ccccc23)cc1 (racemic)", "pEC50": 6.51}

# input Give reported pEC50 value for COc1ccc(CNc2nc(N3CCC[C@H]3CO)nc3ccccc23)cc1
# output 5.39

====

Tested on: INS1
Assay: Protection against tunicamycin induced endoplasmic reticulum stress in rat INS-1 cells assessed as increase in cell viability after 3 days by CellTiter-Glo assay
Format: functional, cell-based
Conditions: INS1, 72 h
readout kind: pEC50
Units for pEC50: none; it is -log10 of a concentration expressed in mol/L.

{"compound": "OC[C@@H]1CCCN1c1nc(NCCc2cccc(Cl)c2)c2ccccc2n1", "pEC50": 5.98}
{"compound": "OCC1CCCCN1c1nc(NCCc2ccccc2Br)c2ccccc2n1 (racemic)", "pEC50": 5.85}
{"compound": "Cc1ccc(CCNc2nc(N3CCC[C@H]3CO)nc3ccccc23)cc1", "pEC50": 6.18}
{"compound": "COc1ccccc1CCNc1nc(N2CCC[C@H]2CO)nc2ccccc12", "pEC50": 5.45}
{"compound": "COc1ccc(CNc2nc(N3CCCCC3CO)nc3ccccc23)cc1 (racemic)", "pEC50": 6.25}
{"compound": "COc1ccc(CNc2nc(N3CCC[C@H]3CO)nc3ccccc23)cc1OC", "pEC50": 5.73}
{"compound": "OC[C@@H]1CCCN1c1nc(NCCc2ccc(F)cc2)c2ccccc2n1", "pEC50": 5.67}
{"compound": "OCC1CCCCN1c1nc(NCCc2cccc(Cl)c2)c2ccccc2n1 (racemic)", "pEC50": 6.10}
{"compound": "Cc1ccc(CCNc2nc(N3CCCCC3CO)nc3ccccc23)cc1 (racemic)", "pEC50": 6.85}
{"compound": "OCC1CCCCN1c1nc(NCCc2ccc(Cl)cc2)c2ccccc2n1 (racemic)", "pEC50": 6.77}

# input Give reported pEC50 value for OC[C@@H]1CCCN1c1nc(NCCc2cccc(F)c2)c2ccccc2n1
# output 5.94

# input Give reported pEC50 value for OC[C@@H]1CCCN1c1nc(NCCc2ccccc2Cl)c2ccccc2n1
# output 5.84

# input Give reported pEC50 value for COc1ccc(CNc2nc(N3CCCCC3CO)nc3ccccc23)cc1OC (configuration not stated)
# output 5.44

# input Give reported pEC50 value for OC[C@@H]1CCCN1c1nc(NCCc2ccccc2F)c2ccccc2n1
# output 5.77

# input Give reported pEC50 value for OC[C@@H]1CCCN1c1nc(NCCc2ccccc2Br)c2ccccc2n1
# output 5.73

====

Test system: INS1
Experiment: Protection against tunicamycin induced endoplasmic reticulum stress in rat INS-1 cells assessed as increase in cell viability after 3 days by CellTiter-Glo assay
Assay type: functional, cell-based
Conditions: INS1, 72 h
readout kind: EC50 (µM)
Use µM as the unit, but write only the number.

{"molecule": "OCC1CCCCN1c1nc(NCCc2ccccc2F)c2ccccc2n1 (racemic)", "EC50, µM": 1.46}
{"molecule": "COc1ccccc1CCNc1nc(N2CCCCC2CO)nc2ccccc12 (racemic)", "EC50, µM": 1.6}
{"molecule": "COc1cccc(CCNc2nc(N3CCCCC3CO)nc3ccccc23)c1 (racemic)", "EC50, µM": 2.59}
{"molecule": "OCC1CCCCN1c1nc(NCCc2ccccc2Cl)c2ccccc2n1 (racemic)", "EC50, µM": 0.47}
{"molecule": "COc1cccc(CCNc2nc(N3CCC[C@H]3CO)nc3ccccc23)c1", "EC50, µM": 1.51}
{"molecule": "OC[C@@H]1CCCN1c1nc(NCCc2cccc(Br)c2)c2ccccc2n1", "EC50, µM": 0.78}

From here, focus on the item given below.
# input Give reported EC50 value for OCC1CCCCN1c1nc(NCc2ccc(Cl)cc2)c2ccccc2n1 (configuration not stated)
# output 0.21

Source listed as ChEMBL document CHEMBL4428057.
